Recorded values, source patent US20220153766A1.

# TARGET_OF_ASSAY: EGFR (C797S) (Homo sapiens, UniProt P00533, C797S)
# Sequence (P00533 25-1210 C797S): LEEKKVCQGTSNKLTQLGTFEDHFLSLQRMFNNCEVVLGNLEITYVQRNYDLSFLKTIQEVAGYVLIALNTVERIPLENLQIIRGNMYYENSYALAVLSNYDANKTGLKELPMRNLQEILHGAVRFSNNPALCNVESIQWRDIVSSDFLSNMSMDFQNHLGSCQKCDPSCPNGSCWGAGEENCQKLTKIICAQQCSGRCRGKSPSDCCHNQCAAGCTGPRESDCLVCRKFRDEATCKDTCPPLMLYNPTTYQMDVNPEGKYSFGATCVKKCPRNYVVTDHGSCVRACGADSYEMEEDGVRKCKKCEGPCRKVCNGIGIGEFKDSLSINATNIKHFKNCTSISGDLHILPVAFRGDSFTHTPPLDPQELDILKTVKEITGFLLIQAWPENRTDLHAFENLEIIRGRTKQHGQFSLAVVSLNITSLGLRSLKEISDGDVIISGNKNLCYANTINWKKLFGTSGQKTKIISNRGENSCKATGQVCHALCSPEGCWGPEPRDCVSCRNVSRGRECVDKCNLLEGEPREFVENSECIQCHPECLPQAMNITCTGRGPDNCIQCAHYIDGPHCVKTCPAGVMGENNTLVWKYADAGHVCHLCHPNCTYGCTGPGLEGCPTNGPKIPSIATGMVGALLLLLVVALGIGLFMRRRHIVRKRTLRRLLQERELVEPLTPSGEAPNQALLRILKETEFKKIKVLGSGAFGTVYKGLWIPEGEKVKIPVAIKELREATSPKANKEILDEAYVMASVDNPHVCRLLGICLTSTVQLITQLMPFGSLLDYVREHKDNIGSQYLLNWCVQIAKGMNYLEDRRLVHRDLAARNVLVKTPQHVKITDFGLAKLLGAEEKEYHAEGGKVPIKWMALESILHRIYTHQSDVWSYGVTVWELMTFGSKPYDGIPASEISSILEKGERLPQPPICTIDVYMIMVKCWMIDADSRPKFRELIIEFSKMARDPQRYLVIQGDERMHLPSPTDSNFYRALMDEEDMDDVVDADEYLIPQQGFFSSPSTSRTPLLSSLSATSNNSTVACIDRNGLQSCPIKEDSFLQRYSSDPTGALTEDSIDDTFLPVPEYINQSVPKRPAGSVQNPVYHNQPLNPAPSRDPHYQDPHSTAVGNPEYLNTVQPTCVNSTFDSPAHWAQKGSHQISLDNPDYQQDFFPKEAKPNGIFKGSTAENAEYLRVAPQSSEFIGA
# MEASUREMENT_NOTES: EGFR (C797S) kinase activity inhibition, Lantha screen Assay
# CONDITION_DETAILS: kinase 10 nM, ATP 0.1 μM
pIC50: −log10 of the molar value.
Give pIC50 for every item shown.

Problem: Read off the recorded pIC50 for CN(C)CCN1CCN2c3ccc(Nc4ncc(Cl)c(Nc5ccccc5P(C)(C)=O)n4)cc3OC[C@H]2C1 [Compound 14R]
Result: 6.60 to 7.30

Respectfully, I request pIC50 for each entry included below.
1. CP(C)(=O)c1ccccc1Nc1nc(Nc2ccc3c(c2)OC[C@H]2CN(C4CCOCC4)CCN32)ncc1Cl
2. CCN1CCN2c3ccc(Nc4ncc(Cl)c(Nc5ccccc5P(C)(C)=O)n4)cc3OC[C@H]2C1
3. CP(C)(=O)c1ccccc1Nc1nc(Nc2ccc3c(c2)OC[C@H]2CN(CC(F)(F)F)CCN32)ncc1Cl [Compound 13R]
4. CP(C)(=O)c1ccccc1Nc1nc(Nc2ccc3c(c2)OC[C@H]2CN(S(=O)(=O)C4CC4)CCN32)ncc1Cl
5. CP(C)(=O)c1ccccc1Nc1nc(Nc2ccc3c(c2)OC[C@H]2COCCN32)ncc1Cl [Compound 12R]
6. CN1CCN2c3ccc(Nc4ncc(Cl)c(Nc5ccccc5P(C)(C)=O)n4)cc3OC[C@H]2C1

Result:
1: 7.30 to 9.00; 2: 7.30 to 9.00; 3: 6.60 to 7.30; 4: 6.60 to 7.30; 5: 6.60 to 7.30; 6: 7.30 to 9.00

----------
# MEASUREMENT_NOTES: Pharmacokinetic study in rats after intragastrical administration
# Assay type: in vivo
# CONDITION_DETAILS: male, rat, plasma, po, SD rats, 3 mg/kg
MEASURE: Cmax (ng/mL)
Answers are plain numbers, in ng/mL.

Take a look at these entries with their results.
Problem: Read off the recorded Cmax for CC(=O)N1CCC(N2CCN3c4c(C)cc(Nc5ncc(Cl)c(Nc6ccccc6P(C)(C)=O)n5)cc4OC[C@@H]3C2)CC1 [Compound 32S]
Result: 352

Problem: Read off the recorded Cmax for Cc1cc(Nc2ncc(Cl)c(Nc3ccccc3P(C)(C)=O)n2)cc2c1N1CCN(C3CCN(C)CC3)C[C@@H]1CO2 [Compound 27R]
Result: 196

Problem: Read off the recorded Cmax for Cc1cc(Nc2ncc(Cl)c(Nc3ccccc3P(C)(C)=O)n2)cc2c1N1CCN(C3CCN(C)CC3)C[C@H]1CO2 [Compound 27S]
Result: 140

Could you now consider this next molecule?
Problem: Read off the recorded Cmax for Cc1cc(Nc2ncc(Cl)c(Nc3ccccc3P(C)(C)=O)n2)cc2c1N1CCN(C3CCN(C4CC4)CC3)C[C@@H]1CO2 [Compound 33R]
Result: 120

----------
# TARGET_OF_ASSAY: ALK (Homo sapiens, UniProt Q9UM73)
# Sequence (Q9UM73 19-1620): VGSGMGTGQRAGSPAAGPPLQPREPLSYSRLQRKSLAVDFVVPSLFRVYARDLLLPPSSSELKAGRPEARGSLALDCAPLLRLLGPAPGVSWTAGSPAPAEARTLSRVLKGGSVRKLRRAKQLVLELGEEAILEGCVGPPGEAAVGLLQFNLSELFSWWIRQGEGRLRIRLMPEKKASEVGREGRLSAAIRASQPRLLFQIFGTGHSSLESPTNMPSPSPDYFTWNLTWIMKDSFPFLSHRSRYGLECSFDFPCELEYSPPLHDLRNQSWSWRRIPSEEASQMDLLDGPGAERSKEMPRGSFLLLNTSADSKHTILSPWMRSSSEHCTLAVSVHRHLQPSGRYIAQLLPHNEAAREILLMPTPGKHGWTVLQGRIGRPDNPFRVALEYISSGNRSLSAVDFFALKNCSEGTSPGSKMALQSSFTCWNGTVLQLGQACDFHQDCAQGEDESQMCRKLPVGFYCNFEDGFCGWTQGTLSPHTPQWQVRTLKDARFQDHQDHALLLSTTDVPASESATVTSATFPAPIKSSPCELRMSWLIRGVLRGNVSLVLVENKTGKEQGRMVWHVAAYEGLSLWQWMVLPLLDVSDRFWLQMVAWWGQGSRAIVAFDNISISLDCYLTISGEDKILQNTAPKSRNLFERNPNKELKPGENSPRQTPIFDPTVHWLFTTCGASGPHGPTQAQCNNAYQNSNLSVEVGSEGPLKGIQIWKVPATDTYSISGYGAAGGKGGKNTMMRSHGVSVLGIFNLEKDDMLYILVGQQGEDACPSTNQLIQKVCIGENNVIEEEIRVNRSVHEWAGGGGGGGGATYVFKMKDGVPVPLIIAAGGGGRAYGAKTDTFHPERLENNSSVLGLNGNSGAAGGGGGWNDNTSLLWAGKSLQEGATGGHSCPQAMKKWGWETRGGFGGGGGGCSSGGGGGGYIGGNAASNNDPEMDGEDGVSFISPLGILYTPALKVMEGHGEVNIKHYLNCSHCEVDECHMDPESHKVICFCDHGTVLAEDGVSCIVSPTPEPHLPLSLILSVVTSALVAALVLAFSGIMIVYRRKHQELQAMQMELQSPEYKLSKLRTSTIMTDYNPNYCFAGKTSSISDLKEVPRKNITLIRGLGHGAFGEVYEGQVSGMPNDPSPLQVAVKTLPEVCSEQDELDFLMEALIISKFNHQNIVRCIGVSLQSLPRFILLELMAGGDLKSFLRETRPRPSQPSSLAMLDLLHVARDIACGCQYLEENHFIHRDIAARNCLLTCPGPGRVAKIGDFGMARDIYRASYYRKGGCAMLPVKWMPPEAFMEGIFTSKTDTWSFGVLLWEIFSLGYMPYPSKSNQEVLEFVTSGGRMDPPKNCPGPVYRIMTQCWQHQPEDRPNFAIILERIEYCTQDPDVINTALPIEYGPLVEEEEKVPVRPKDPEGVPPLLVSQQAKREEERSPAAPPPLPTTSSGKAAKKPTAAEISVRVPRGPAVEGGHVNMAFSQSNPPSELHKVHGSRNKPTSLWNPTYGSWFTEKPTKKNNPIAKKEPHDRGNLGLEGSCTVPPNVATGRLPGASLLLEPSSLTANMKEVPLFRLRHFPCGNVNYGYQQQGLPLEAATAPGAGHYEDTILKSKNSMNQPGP
# MEASUREMENT_NOTES: ALK kinase activity inhibition, Caliper mobility shift assay, method 1
# Format: biochemical
Give IC50 for every item shown.

Take a look at these entries with their results.
Problem: Report IC50 on ALK (Homo sapiens, UniProt Q9UM73) for this entry: `C=CC(=O)N1CCN2c3ccc(Nc4ncc(Cl)c(Nc5ccccc5P(C)(C)=O)n4)cc3OC[C@H]2C1`
Result: 1 to 50 nM

Problem: Report IC50 on ALK (Homo sapiens, UniProt Q9UM73) for this entry: CP(C)(=O)c1ccccc1Nc1nc(Nc2ccc3c(c2)OC[C@@H]2COCCN32)ncc1Cl [Compound 12S]
Result: 1 to 50 nM

Problem: Report IC50 on ALK (Homo sapiens, UniProt Q9UM73) for this entry: `CP(C)(=O)c1ccccc1Nc1nc(Nc2ccc3c(c2)OC[C@H]2CN(CCO)CCN32)ncc1Cl`
Result: 1 to 50 nM

Respectfully, I request IC50 for each entry included below.
1. CN1CCC(N2CCN3c4ccc(Nc5ncc(Cl)c(Nc6ccccc6P(C)(C)=O)n5)cc4OC[C@H]3C2)CC1 [Compound 11R]
2. CP(C)(=O)c1ccccc1Nc1nc(Nc2ccc3c(c2)OC[C@H]2CN(c4ccccc4)CCN32)ncc1Cl [Compound 16R]
3. CP(C)(=O)c1ccccc1Nc1nc(Nc2ccc3c(c2)OC[C@H]2CN(CC(F)(F)F)CCN32)ncc1Cl [Compound 13R]

Result:
1 to 50 nM
50 to 250 nM
50 to 250 nM

Respectfully, I request IC50 for each entry included below.
1. CP(C)(=O)c1ccccc1Nc1nc(Nc2ccc3c(c2)OC[C@@H]2CNCCN32)ncc1Cl
2. CN1CCN2c3ccc(Nc4ncc(Cl)c(Nc5ccccc5P(C)(C)=O)n4)cc3OC[C@H]2C1

Result:
1. 1 to 50 nM
2. 1 to 50 nM

Respectfully, I request IC50 for each entry included below.
1. COCCN1CCN2c3ccc(Nc4ncc(Cl)c(Nc5ccccc5P(C)(C)=O)n4)cc3OC[C@H]2C1 [Compound 10R]
2. CP(C)(=O)c1ccccc1Nc1nc(Nc2ccc3c(c2)OC[C@H]2CN(c4cccnc4)CCN32)ncc1Cl [Compound 15R]
3. CC(=O)N1CCN2c3ccc(Nc4ncc(Cl)c(Nc5ccccc5P(C)(C)=O)n4)cc3OC[C@H]2C1
4. CN(C)CCN1CCN2c3ccc(Nc4ncc(Cl)c(Nc5ccccc5P(C)(C)=O)n4)cc3OC[C@H]2C1 [Compound 14R]
5. CCN1CCN2c3ccc(Nc4ncc(Cl)c(Nc5ccccc5P(C)(C)=O)n4)cc3OC[C@H]2C1
6. CN1CCN2c3ccc(Nc4ncc(Cl)c(Nc5ccccc5P(C)(C)=O)n4)cc3OC[C@@H]2C1
7. CP(C)(=O)c1ccccc1Nc1nc(Nc2ccc3c(c2)OC[C@H]2COCCN32)ncc1Cl [Compound 12R]
8. C=CC(=O)N1CCN2c3ccc(Nc4ncc(Cl)c(Nc5ccccc5P(C)(C)=O)n4)cc3OC[C@@H]2C1

Result:
["1 to 50 nM", "50 to 250 nM", "1 to 50 nM", "50 to 250 nM", "1 to 50 nM", "1 to 50 nM", "50 to 250 nM", "1 to 50 nM"]
